The measurements presented in this section are drawn from patent US7414023.

Reported pIC50 by item:
target: PSA (human, UniProt P07288); assay: competition, IFMA with free PSA
Bridge positions count the residues as written; N and C are the ends. Ends that are not written are not given here.
Answer as the number alone; pIC50 is minus log10 of concentration in mol/L.

These recorded examples may help you get a feel for the data.
CVAYCIEHHCWTC (disulfide 1-13, 5-10; also: GST fusion, site not given here) [GST-C-4] | 9.15
CVFAHNYDYLVC (disulfide 1-12 (inferred); also: GST fusion, site not given here) [GST-B-2] | 9.00

Here is the next item to consider.
[Q] Query: pIC50; subject: CVFTSDYAFC (disulfide 1-10 (inferred); also: GST fusion, site not given here) [GST-A-1]
[A] 8.48
